# Run Description: in vitro
# Condition: human, hela cells, % viability
Readout Name: viability at 28.5 h, 10 µM (%)

>  <Compound>
CNC(=O)C1(Cc2cccc(-c3cccs3)c2)CCN(C(=O)Cc2ccccc2)CC1

>  <Unit Annotation>
%

>  <Observed Result>
93.3

$$$$
>  <Compound>
O=C(CSCc1c(F)cccc1Cl)Nc1ccc(S(=O)(=O)N2CCCCC2)cc1

>  <Unit Annotation>
%

>  <Observed Result>
90.4

$$$$
>  <Compound>
Cc1nn(C)c(Cl)c1S(=O)(=O)Nc1cc(NC2CCNC2)c2occc2c1 (stereo not drawn) [CBK067807C]

>  <Unit Annotation>
%

>  <Observed Result>
99.3

$$$$

---

# Run Description: in vitro
# Condition: human, hela cells, % viability

>  <Molecule>
NC(=O)CN1CCN(CCc2ccccc2)CC1

>  <viability at 28.5 h, 10 µM (%)>
88.4

$$$$
>  <Molecule>
Cc1ccc(S(=O)(=O)N(CC(=O)NCc2ccco2)c2cccc(C)c2)cc1

>  <viability at 28.5 h, 10 µM (%)>
93.9

$$$$
>  <Molecule>
CC(C)Nc1cc(Sc2cccc(C(=O)O)c2)ncn1

>  <viability at 28.5 h, 10 µM (%)>
117

$$$$
>  <Molecule>
Cc1ccc2nsnc2c1NC(=O)CSc1nccn1C

>  <viability at 28.5 h, 10 µM (%)>
104

$$$$
>  <Molecule>
NCC(O)CNC(=O)c1cc(-c2ccc(Cl)cc2)[nH]n1 (centres unmarked)

>  <viability at 28.5 h, 10 µM (%)>
87

$$$$
>  <Molecule>
O=C1C[C@@H]2CCN(C(=O)Nc3cccc(C(F)(F)F)c3)C[C@@H]2CCN1CCc1c[nH]cn1

>  <viability at 28.5 h, 10 µM (%)>
105

$$$$
>  <Molecule>
O=C(NC1(c2ccccc2)CC1)c1cccc(-n2cnnc2)c1

>  <viability at 28.5 h, 10 µM (%)>
99.1

$$$$
>  <Molecule>
CCN1CC2(CCN(CCCn3c(=O)[nH]c4ccccc43)CC2)c2ccccc21

>  <viability at 28.5 h, 10 µM (%)>
93.7

$$$$
>  <Molecule>
c1ccc(CNc2nc(-c3ccsc3)cn3ccnc23)cc1

>  <viability at 28.5 h, 10 µM (%)>
88

$$$$
>  <Molecule>
CC(=O)N1CCC(N2C[C@H](O)C[C@H]2c2nc(-c3cccc([N+](=O)[O-])c3)no2)CC1

>  <viability at 28.5 h, 10 µM (%)>
90.5

$$$$
>  <Molecule>
CCOC(=O)c1c(NC(=O)c2cccnc2)sc2c1CCCC2

>  <viability at 28.5 h, 10 µM (%)>
101

$$$$
>  <Molecule>
COc1ccccc1-c1nnc(NCc2ccc3c(c2)OCO3)nc1-c1ccccc1OC

>  <viability at 28.5 h, 10 µM (%)>
96.4

$$$$
>  <Molecule>
C(=N\c1ccc(-c2nc3ccc(/N=C/c4ccncc4)cc3[nH]2)cc1)/c1ccncc1

>  <viability at 28.5 h, 10 µM (%)>
89.8

$$$$
>  <Molecule>
COc1ccccc1N1CCN(C[C@H]2C[N@@]3CC[C@H]2C[C@@H]3CNS(C)(=O)=O)CC1

>  <viability at 28.5 h, 10 µM (%)>
87.5

$$$$
>  <Molecule>
CN1C(=O)/C(=C2\SC(=S)N(C(CCC(=O)O)C(=O)O)C2=O)c2ccccc21 (centres unmarked)

>  <viability at 28.5 h, 10 µM (%)>
92.3

$$$$
>  <Molecule>
N#Cc1ccc(Oc2ccc(C(=O)NCC(=O)O)cc2)cc1

>  <viability at 28.5 h, 10 µM (%)>
90.1

$$$$
>  <Molecule>
OC(CN1CCC(O)(c2ccc(F)cc2)CC1)c1ccccc1 (centres unmarked)

>  <viability at 28.5 h, 10 µM (%)>
104

$$$$
>  <Molecule>
Cc1nc2c(c(=O)[nH]1)CCN(Cc1ccc(-c3ccccc3)cc1)C2

>  <viability at 28.5 h, 10 µM (%)>
94.4

$$$$
>  <Molecule>
COc1ccc(/C(N)=N/OC(=O)CN(C)S(=O)(=O)c2ccccc2)cc1

>  <viability at 28.5 h, 10 µM (%)>
93

$$$$
>  <Molecule>
Cc1cc(C(F)(F)F)nc2c(OCCOc3nccnc3N3CCNCC3)cnn12 [CBK024195C]

>  <viability at 28.5 h, 10 µM (%)>
96.1

$$$$
>  <Molecule>
O=C(N/N=C/c1ccc(O)cc1)c1c[nH]c2ccccc12

>  <viability at 28.5 h, 10 µM (%)>
91.4

$$$$
>  <Molecule>
CC(C)NC(=O)N[C@H]1CCN2C(=O)c3cc(-c4ccccc4)ccc3NC(=O)[C@H]12

>  <viability at 28.5 h, 10 µM (%)>
84.1

$$$$
>  <Molecule>
CC(C)(O)C#Cc1ccc(C(=O)NCCCNC(=O)c2ccc(C#CC(C)(C)O)s2)s1

>  <viability at 28.5 h, 10 µM (%)>
93.8

$$$$
>  <Molecule>
Cc1nn(Cc2ccc(C(=O)N3CCN(Cc4ccccc4)CC3)o2)c(C)c1Br [CBK265796C]

>  <viability at 28.5 h, 10 µM (%)>
88.8

$$$$
>  <Molecule>
Cc1cc(=O)cc(C(=O)NC2CCN(c3ncccc3C#N)CC2)o1

>  <viability at 28.5 h, 10 µM (%)>
86.2

$$$$
>  <Molecule>
Cc1ccc(-c2nnc(COC(=O)c3cc(O)nc4ccccc34)o2)cc1

>  <viability at 28.5 h, 10 µM (%)>
88.9

$$$$
>  <Molecule>
CCn1cnc2c1CC/C(=N\O)C2

>  <viability at 28.5 h, 10 µM (%)>
80.6

$$$$
>  <Molecule>
O=C(NCc1cccnc1OCC(F)(F)F)c1ccc(=O)[nH]n1

>  <viability at 28.5 h, 10 µM (%)>
92.1

$$$$
>  <Molecule>
OC[C@H]1OCC[C@H]1O

>  <viability at 28.5 h, 10 µM (%)>
113

$$$$

---

Items are presented alongside their recorded viability at 28.5 h, 10 µM.
# Run Description: in vitro
# Condition: human, hela cells, % viability

>  <Molecule>
COc1ccc([C@@]23CC[C@@H](NC(=O)Nc4ncc(Cl)s4)C[C@@H]2N(C)CC3)cc1OC [CBK051620T]

>  <Unit Annotation>
%

>  <viability at 28.5 h, 10 µM>
96.1

$$$$
>  <Molecule>
CCCC/C=C/c1ccc(N2CCN(CCN(C)C)CC2)nc1 [CBK036980]

>  <Unit Annotation>
%

>  <viability at 28.5 h, 10 µM>
101

$$$$
>  <Molecule>
COc1ccc(OC(=O)C2CCN(C(=O)CC(C)C)CC2)c([N+](=O)[O-])c1 [CBK154770]

>  <Unit Annotation>
%

>  <viability at 28.5 h, 10 µM>
97.4

$$$$
>  <Molecule>
COc1cccc(-n2c(C)nnc2C2(OC(C)=O)CCN(CCc3ccccc3)CC2)c1 [CBK016371]

>  <Unit Annotation>
%

>  <viability at 28.5 h, 10 µM>
108

$$$$
>  <Molecule>
COc1ccc(/N=C2\S[C@H]3[C@H]([C@@H](O)[C@H](O)C[C@@H]3C(N)=O)N2Cc2ccc(F)cc2)cc1 [CBK288942]

>  <Unit Annotation>
%

>  <viability at 28.5 h, 10 µM>
90.5

$$$$
>  <Molecule>
OCc1ccc(OCCCOc2cccc3cccnc23)cc1 [CBK269674]

>  <Unit Annotation>
%

>  <viability at 28.5 h, 10 µM>
85.8

$$$$
>  <Molecule>
COc1ccccc1C1=NN(C(=O)CCCC(=O)O)C(c2ccco2)C1 (stereo not shown) [CBK266642]

>  <Unit Annotation>
%

>  <viability at 28.5 h, 10 µM>
91.8

$$$$
>  <Molecule>
CC(Oc1ccc(F)cc1)C(=O)N(C)CC1(C)COC1 (stereo not shown) [CBK281702]

>  <Unit Annotation>
%

>  <viability at 28.5 h, 10 µM>
89.7

$$$$
>  <Molecule>
OCCCc1[nH]nc(-c2ccc(Cl)cc2)c1Br [CBK006993]

>  <Unit Annotation>
%

>  <viability at 28.5 h, 10 µM>
59.2

$$$$
>  <Molecule>
Cn1nc(C(=O)NCC(c2ccccc2Cl)N2CCOCC2)ccc1=O (stereo not shown) [CBK305886]

>  <Unit Annotation>
%

>  <viability at 28.5 h, 10 µM>
87.3

$$$$
>  <Molecule>
COC[C@@H]1CCCN1S(=O)(=O)c1cccs1 [CBK045239]

>  <Unit Annotation>
%

>  <viability at 28.5 h, 10 µM>
96

$$$$
>  <Molecule>
c1ccc2oc(NC3=NCN(Cc4ccc5c(c4)OCO5)CN3)nc2c1 [CBK267964]

>  <Unit Annotation>
%

>  <viability at 28.5 h, 10 µM>
95.1

$$$$
>  <Molecule>
CCOC(=O)C(NC(=O)N(C1=NCC(C)S1)C1CCCCC1)(OC)C(F)(F)F (stereo not shown) [CBK021431]

>  <Unit Annotation>
%

>  <viability at 28.5 h, 10 µM>
96.8

$$$$
>  <Molecule>
Cc1nn(C)cc1-c1cncn1Cc1cccc(OC(C)C)c1 [CBK281484]

>  <Unit Annotation>
%

>  <viability at 28.5 h, 10 µM>
95.3

$$$$
>  <Molecule>
NS(=O)(=O)c1ccc(NC(=S)Nc2nn(Cc3ccc(Cl)cc3Cl)cc2Cl)cc1 [CBK267020]

>  <Unit Annotation>
%

>  <viability at 28.5 h, 10 µM>
90.6

$$$$
>  <Molecule>
Cc1c(NC(=O)OC(C)C)sc(=S)n1C [CBK028089]

>  <Unit Annotation>
%

>  <viability at 28.5 h, 10 µM>
88.9

$$$$
>  <Molecule>
Cc1cc(C2CCCCCN2Cc2c(C)nn(C)c2C)on1 (stereo not shown) [CBK282967]

>  <Unit Annotation>
%

>  <viability at 28.5 h, 10 µM>
99.7

$$$$
>  <Molecule>
CC(C)OCC(=O)NC1CCCc2nc(N3CCC(CO)CC3)ncc21 (stereo not shown) [CBK307520]

>  <Unit Annotation>
%

>  <viability at 28.5 h, 10 µM>
94.5

$$$$
>  <Molecule>
Cc1nc2c(c(N(C)C)n1)CCN(C(=O)C(C)n1cc(Cl)cn1)C2 (stereo not shown) [CBK307293]

>  <Unit Annotation>
%

>  <viability at 28.5 h, 10 µM>
110

$$$$
>  <Molecule>
CC(=O)Nc1cccc(NC(=O)N2CCCCC2CO)c1 (stereo not shown) [CBK156181]

>  <Unit Annotation>
%

>  <viability at 28.5 h, 10 µM>
101

$$$$
>  <Molecule>
c1ccc2c(c1)OCC(COc1nccc(N3CCCNCC3)n1)O2 (stereo not shown) [CBK085471]

>  <Unit Annotation>
%

>  <viability at 28.5 h, 10 µM>
89.8

$$$$
>  <Molecule>
N/C(=N/OC(=O)c1ccc2nsnc2c1)c1ncon1 [CBK263847]

>  <Unit Annotation>
%

>  <viability at 28.5 h, 10 µM>
105

$$$$
>  <Molecule>
Cn1cc(CNS(=O)(=O)c2ccc(F)c(Br)c2)cn1 [CBK305174]

>  <Unit Annotation>
%

>  <viability at 28.5 h, 10 µM>
92.5

$$$$
>  <Molecule>
c1cc(CCCOc2cc(N3CCCC3)ncn2)ccn1 [CBK115897]

>  <Unit Annotation>
%

>  <viability at 28.5 h, 10 µM>
84.4

$$$$
>  <Molecule>
O=C(NCC(O)COc1ccccc1)c1cnn2c(-c3ccccc3)ccnc12 (stereo not shown) [CBK298320]

>  <Unit Annotation>
%

>  <viability at 28.5 h, 10 µM>
99

$$$$
>  <Molecule>
O=C(O)c1cccc(CSc2nnc(-c3ccccc3)c(-c3ccccc3)n2)c1 [CBK269165]

>  <Unit Annotation>
%

>  <viability at 28.5 h, 10 µM>
97.6

$$$$
>  <Molecule>
COc1ccc(CO)cc1OCc1ccccc1 [CBK051334]

>  <Unit Annotation>
%

>  <viability at 28.5 h, 10 µM>
110

$$$$
>  <Molecule>
CC(=O)N1CC(C)(C)c2ccccc21 [CBK003715]

>  <Unit Annotation>
%

>  <viability at 28.5 h, 10 µM>
99.6

$$$$
>  <Molecule>
COc1ccc(C(=O)CCCN2CC3CCC(NC(=O)Nc4ccc(F)c(F)c4)CC3C2)cc1 (stereo not shown) [CBK083514T]

>  <Unit Annotation>
%

>  <viability at 28.5 h, 10 µM>
109

$$$$
>  <Molecule>
O=C(CSc1nnc(-c2ccncc2)n1-c1ccccc1)N/N=C/c1ccco1 [CBK262828]

>  <Unit Annotation>
%

>  <viability at 28.5 h, 10 µM>
94.4

$$$$
>  <Molecule>
CCCCc1ccc(NC(=O)Nc2ccc3ccc(Cl)nc3n2)cc1 [CBK063259]

>  <Unit Annotation>
%

>  <viability at 28.5 h, 10 µM>
114

$$$$
>  <Molecule>
COCC(=O)N(C)C(CO)c1cc(OC)ccc1Br (stereo not shown) [CBK304780]

>  <Unit Annotation>
%

>  <viability at 28.5 h, 10 µM>
88.7

$$$$
>  <Molecule>
COc1cc(Nc2cccc(-c3cccc(NC(C)=O)c3)n2)cc(OC)c1OC [CBK037698]

>  <Unit Annotation>
%

>  <viability at 28.5 h, 10 µM>
111

$$$$
>  <Molecule>
O=C(Nc1ccccc1N1CCNCC1)C1CCC1 [CBK004755T]

>  <Unit Annotation>
%

>  <viability at 28.5 h, 10 µM>
90.9

$$$$
>  <Molecule>
O=C(Nc1cc2nn(-c3ccccc3)nc2cc1Cl)c1ccc(-c2cccc([N+](=O)[O-])c2)o1 [CBK266271]

>  <Unit Annotation>
%

>  <viability at 28.5 h, 10 µM>
94

$$$$
>  <Molecule>
N#Cc1ccccc1NC(=O)CSc1cnn[nH]1 [CBK269795]

>  <Unit Annotation>
%

>  <viability at 28.5 h, 10 µM>
89.3

$$$$
>  <Molecule>
CC(C)(CNC(=O)Cn1cccc(C(=O)NC2CCCCC2)c1=O)c1cccc(F)c1 [CBK286069]

>  <Unit Annotation>
%

>  <viability at 28.5 h, 10 µM>
86.9

$$$$
